Reference source: paper PMC9482650

Biological target: T1, MPP6, Q9NZW5
T1 sequence (Q9NZW5 125-219, limits assumed, looked up): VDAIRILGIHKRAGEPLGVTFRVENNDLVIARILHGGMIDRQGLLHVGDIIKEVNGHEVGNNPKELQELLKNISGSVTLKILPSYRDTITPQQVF
Test: holdup assay
Design: key: below the threshold = too weak to quantify, mostly under pKd 3.1 to 4
Conditions: plain residues with an end cap or a label only (N-terminal biotin on a linker: ado-ado)
Measurement kind: pKd

Field: example entries. Status: answers known.
INSERT INTO assay_data (binder, reported_result) VALUES
  ('SGDGKTSVWI [GJC1, P36383]', 'below the threshold'),
  ('ELKAEDEVQI [DCHS2, Q6V1P9]', 'below the threshold'),
  ('TKDKVQETQI [LRRC4, Q9HBW1]', 3.89),
  ('FVFESRKEIL [TBPL1, P62380]', 3.53);

Turning now to a further binder:
pKd reading for WAKEKQHTRL [SLC17A1, Q14916] : below the threshold
